Origin of the recorded values: patent US20230074558A1

molecular target: human STING (homozygous HAQ allele) (Homo sapiens, UniProt Q86WV6, G230A/H232R/R293Q/R71H); construct: THP1-Dual™ Human Monocytes cells with the homozygous HAQ allele, known to be a natural variant allele of STING; host or cells: THP1-Dual human monocytes; experiment: Activation of human STING signaling in THP1-Dual Human Monocytes cells, IRF3 luciferase reporter induction; type: cell-based; details: 24 hours incubation
Sequence (Q86WV6 whole entry R71H/G230A/H232R/R293Q): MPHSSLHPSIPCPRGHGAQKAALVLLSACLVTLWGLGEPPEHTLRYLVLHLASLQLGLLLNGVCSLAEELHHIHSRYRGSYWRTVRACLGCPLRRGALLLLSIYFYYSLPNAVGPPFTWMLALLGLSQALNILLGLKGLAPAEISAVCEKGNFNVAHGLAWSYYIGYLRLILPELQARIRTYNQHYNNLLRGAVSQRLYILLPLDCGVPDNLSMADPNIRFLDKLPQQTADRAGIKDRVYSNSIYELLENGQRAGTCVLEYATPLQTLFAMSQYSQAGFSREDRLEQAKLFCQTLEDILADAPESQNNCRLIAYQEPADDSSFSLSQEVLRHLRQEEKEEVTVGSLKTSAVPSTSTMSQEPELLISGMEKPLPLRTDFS

compound	target entity	EC50
COc1cc2sc(C(=O)CCC(=O)O)cc2cc1CCCC(=O)Nc1cc2cc(C(=O)CCC(=O)O)sc2cc1OC [Compound 220]	human STING (homozygous HAQ allele) (Homo sapiens, UniProt Q86WV6, G230A/H232R/R293Q/R71H)	≥ 10 µM
COc1cc2sc(C(=O)CCC(=O)O)cc2cc1NC(=O)C1(C(=O)Nc2cc3cc(C(=O)CCC(=O)O)sc3cc2OC)CCC1 [Compound 223]	human STING (homozygous HAQ allele) (Homo sapiens, UniProt Q86WV6, G230A/H232R/R293Q/R71H)	≥ 10 µM
C=C(COc1c(OC)cc2sc(C(=O)CCC(=O)OC)nc2c1F)COc1c(OC)cc2sc(C(=O)CCC(=O)OC)nc2c1F [compound 264]	human STING (homozygous HAQ allele) (Homo sapiens, UniProt Q86WV6, G230A/H232R/R293Q/R71H)	< 1 µM
C=C(COc1cc2cc(C(=O)CCC(=O)O)sc2cc1OC)COc1cc2cc(C(=O)CCC(=O)O)sc2cc1OC [Compound 40]	human STING (homozygous HAQ allele) (Homo sapiens, UniProt Q86WV6, G230A/H232R/R293Q/R71H)	< 1 µM
O=C(O)CCC(=O)c1cc2ccc(/C=C\c3ccc4cc(C(=O)CCC(=O)O)sc4c3)cc2s1 [Compound 36]	human STING (homozygous HAQ allele) (Homo sapiens, UniProt Q86WV6, G230A/H232R/R293Q/R71H)	≥ 10 µM
COc1cc2sc(C(=O)CCC(=O)O)cc2c(F)c1OC/C=C/COc1c(OC)cc2sc(C(=O)CCC(=O)O)cc2c1F [Compound 203]	human STING (homozygous HAQ allele) (Homo sapiens, UniProt Q86WV6, G230A/H232R/R293Q/R71H)	< 1 µM
O=C(O)CCC(=O)c1nc2ccc(NC(=O)COc3ccc4nc(C(=O)CCC(=O)O)sc4c3)cc2s1 [Compound 18]	human STING (homozygous HAQ allele) (Homo sapiens, UniProt Q86WV6, G230A/H232R/R293Q/R71H)	< 1 µM
O=C(O)CCC(=O)c1cc2ccc(-c3ccccc3-c3ccc4cc(C(=O)CCC(=O)O)sc4c3)cc2s1 [Compound 30]	human STING (homozygous HAQ allele) (Homo sapiens, UniProt Q86WV6, G230A/H232R/R293Q/R71H)	1 to 10 µM
COc1cc2sc(C(=O)CCC(=O)O)cc2c(F)c1OCC(=CCO)COc1c(OC)cc2sc(C(=O)CCC(=O)O)cc2c1F [Compound 210]	human STING (homozygous HAQ allele) (Homo sapiens, UniProt Q86WV6, G230A/H232R/R293Q/R71H)	< 1 µM
C=C(COc1cc2cc(C(=O)CCC(=O)O)sc2cc1OC)COc1c(OC)cc2sc(C(=O)CCC(=O)O)cc2c1F [Compound 207]	human STING (homozygous HAQ allele) (Homo sapiens, UniProt Q86WV6, G230A/H232R/R293Q/R71H)	< 1 µM
COc1cc2sc(C(=O)CCC(=O)O)cc2c(F)c1OCC(=CC(=O)F)COc1c(OC)cc2sc(C(=O)CCC(=O)O)cc2c1F [Compound 208]	human STING (homozygous HAQ allele) (Homo sapiens, UniProt Q86WV6, G230A/H232R/R293Q/R71H)	≥ 10 µM
COc1cc2sc(C(=O)CCC(=O)O)cc2cc1NC(=O)CCOc1c(OC)cc2sc(C(=O)CCC(=O)O)cc2c1F [Compound 206]	human STING (homozygous HAQ allele) (Homo sapiens, UniProt Q86WV6, G230A/H232R/R293Q/R71H)	≥ 10 µM
COc1cc2sc(C(=O)CCC(=O)O)cc2c(F)c1OCC(=CC(=O)OC(C)(C)C)COc1c(OC)cc2sc(C(=O)CCC(=O)O)cc2c1F [Compound 209]	human STING (homozygous HAQ allele) (Homo sapiens, UniProt Q86WV6, G230A/H232R/R293Q/R71H)	≥ 10 µM
COc1cc2sc(C(=O)CCC(=O)O)cc2cc1/C=C/C(=O)Nc1cc2cc(C(=O)CCC(=O)O)sc2cc1OC [Compound 229]	human STING (homozygous HAQ allele) (Homo sapiens, UniProt Q86WV6, G230A/H232R/R293Q/R71H)	≥ 10 µM
COc1cc2sc(C(=O)CCC(=O)O)cc2c(F)c1OCC#CCOc1c(OC)cc2sc(C(=O)CCC(=O)O)cc2c1F [Compound 227]	human STING (homozygous HAQ allele) (Homo sapiens, UniProt Q86WV6, G230A/H232R/R293Q/R71H)	≥ 10 µM
C=C(COc1c(OC)cc2sc(C(=O)CCC(=O)O)cc2c1F)COc1c(OC)cc2sc(C(=O)CCC(=O)O)cc2c1F [Compound 202]	human STING (homozygous HAQ allele) (Homo sapiens, UniProt Q86WV6, G230A/H232R/R293Q/R71H)	< 1 µM
COc1cc2sc(C(=O)CCC(=O)O)cc2cc1NCCC(=O)Nc1cc2cc(C(=O)CCC(=O)O)sc2cc1OC [Compound 226]	human STING (homozygous HAQ allele) (Homo sapiens, UniProt Q86WV6, G230A/H232R/R293Q/R71H)	≥ 10 µM
COc1cc2sc(C(=O)CCC(=O)O)cc2cc1CCC(=O)Nc1cc2cc(C(=O)CCC(=O)O)sc2cc1OC [Compound 219]	human STING (homozygous HAQ allele) (Homo sapiens, UniProt Q86WV6, G230A/H232R/R293Q/R71H)	≥ 10 µM
O=C(O)CCC(=O)c1nc2ccc(/C=C\c3ccc4nc(C(=O)CCC(=O)O)sc4c3)cc2s1 [Compound 6]	human STING (homozygous HAQ allele) (Homo sapiens, UniProt Q86WV6, G230A/H232R/R293Q/R71H)	≥ 10 µM
COc1cc2sc(C(=O)CCC(=O)O)cc2cc1NC(=O)C1(C(=O)Nc2cc3cc(C(=O)CCC(=O)O)sc3cc2OC)CC1 [Compound 205]	human STING (homozygous HAQ allele) (Homo sapiens, UniProt Q86WV6, G230A/H232R/R293Q/R71H)	≥ 10 µM
COc1cc2sc(C(=O)CCC(=O)O)cc2cc1NC(=O)C1CCN(c2cc3cc(C(=O)CCC(=O)O)sc3cc2OC)C1=O (centres unmarked) [Compound 221]	human STING (homozygous HAQ allele) (Homo sapiens, UniProt Q86WV6, G230A/H232R/R293Q/R71H)	≥ 10 µM
O=C(O)CCC(=O)c1cc2ccc(CNC(=S)NCc3ccc4cc(C(=O)CCC(=O)O)sc4c3)cc2s1 [Compound 48]	human STING (homozygous HAQ allele) (Homo sapiens, UniProt Q86WV6, G230A/H232R/R293Q/R71H)	≥ 10 µM
COc1cc2sc(C(=O)CCC(=O)O)cc2cc1NC(=O)COc1c(OC)cc2sc(C(=O)CCC(=O)O)cc2c1F [Compound 222]	human STING (homozygous HAQ allele) (Homo sapiens, UniProt Q86WV6, G230A/H232R/R293Q/R71H)	≥ 10 µM
COc1cc2sc(C(=O)CCC(=O)O)cc2cc1NC(=O)CC(=O)Nc1cc2cc(C(=O)CCC(=O)O)sc2cc1OC [Compound 224]	human STING (homozygous HAQ allele) (Homo sapiens, UniProt Q86WV6, G230A/H232R/R293Q/R71H)	≥ 10 µM
O=C(O)CCC(=O)c1cc2ccc(NC(=O)Nc3ccc4cc(C(=O)CCC(=O)O)sc4c3)cc2s1 [Compound 25]	human STING (homozygous HAQ allele) (Homo sapiens, UniProt Q86WV6, G230A/H232R/R293Q/R71H)	≥ 10 µM
COc1cc2sc(C(=O)CCC(=O)O)cc2cc1NC(=O)C1(C(=O)Nc2cc3cc(C(=O)CCC(=O)O)sc3cc2OC)CCOCC1 [Compound 218]	human STING (homozygous HAQ allele) (Homo sapiens, UniProt Q86WV6, G230A/H232R/R293Q/R71H)	≥ 10 µM
